Tested on: CD2F1 mice, L1210 leukemia ip, survival T/C
Experiment: NCI In Vivo Anticancer Drug Screen. Data for tumor model L1210 Leukemia (intraperitoneal) in CD2F1 (CDF1) mice
Conditions: endpoint: mean survival time; dose: 400.0 mg/kg/injection; schedule: Q04DX003 (ip); vehicle: saline; higher = longer survival
Method: The antitumor activity of compounds was measured in mice bearing transplantable tumors. Survival or tumor size were measured and the results are expressed as the measurement made in the treated group (T) divided by the measurement made in the vehicle treated control group (C). The tumor model used in this assay is L1210 Leukemia (intraperitoneal) in CD2F1 (CDF1) mice
Toxic doses and inconclusive results are not listed.
measure: T/C

Quick one: T/C for CCC/C=C\CC(C)C(C)CC (configuration not stated) ?
104 % of control

Quick one: T/C for O=C(O)c1ccccc1C(=O)c1ccccc1 ?
103 % of control

Quick one: T/C for O=S(=O)(/C=C(/Br)c1ccccc1)c1ccccc1 ?
100 % of control

Quick one: T/C for COCCNP(=O)(OC(C)C)OC(C)C ?
101 % of control

Quick one: T/C for Cc1cc(C)c(S(=O)(=O)c2ccc(F)cc2)c(C)c1 ?
96 % of control

Quick one: T/C for COc1cccc(C=Nc2ccc(C)cc2)c1O.COc1cccc(C=Nc2ccc(C)cc2)c1O.[Co] ?
98 % of control

Quick one: T/C for COc1cccc(CO)c1Oc1ccc(C)cc1 ?
89 % of control
